system: Raji; assay: Cytotoxicity against Homo sapiens (human) Raji cells assessed as cell viability after 72 hr by MTT assay; assay type: functional
Kind request: treat 30 µM as inclusive, so IC15 at 30 µM or higher is t, anything lower is f.

Ask: Exam item: decide whether the reported IC15 for O=C1Nc2ccccc2/C1=N/c1nc(Cl)cs1 is at least 30 µM.
Result: t

Ask: Exam item: decide whether the reported IC15 for Cc1ccccc1N=C1C(=O)Nc2ccccc21 is at least 30 µM.
Result: t

Ask: Exam item: decide whether the reported IC15 for O=C1Nc2ccccc2/C1=N/c1nc2ccccc2[nH]1 is at least 30 µM.
Result: f

Ask: Exam item: decide whether the reported IC15 for O=C1Nc2ccccc2/C1=N/Nc1ccc([N+](=O)[O-])cc1 is at least 30 µM.
Result: f

Ask: Exam item: decide whether the reported IC15 for O=C1Nc2ccccc2/C1=N/c1cccc2ccccc12 is at least 30 µM.
Result: t

Ask: Exam item: decide whether the reported IC15 for O=C1Nc2ccccc2/C1=N\c1ccc(Cl)cc1 is at least 30 µM.
Result: t

Ask: Exam item: decide whether the reported IC15 for O=C1Nc2ccccc2/C1=N/c1ccc(Cl)cn1 is at least 30 µM.
Result: t

Ask: Exam item: decide whether the reported IC15 for Cc1nc(Cl)cc(/N=C2\C(=O)Nc3ccccc32)n1 is at least 30 µM.
Result: t
